// cross-source set; read-out = Ki; system = Vasopressin V1b receptor (Homo sapiens, UniProt P47901)
reported.metric: Ki

* CCOc1ncccc1C1(OC(=O)N2CCC(N3CCN(CC)CC3)CC2)C(=O)N(S(=O)(=O)c2ccccc2)c2ccc(C#N)cc21 (racemic) | < 10 nM
* COc1ccccc1C1(N2CCN(c3ccncc3)CC2)C(=O)N(S(=O)(=O)c2cccc3cccnc23)c2cc(C)ccc21 (racemic) | 10 to 50 nM
* CCOc1ncccc1C1(NCc2ccc(N3CCNCC3)cc2)C(=O)N(S(=O)(=O)c2ccc(OC)cc2OC)c2ccc(C#N)cc21 (stereo not drawn) | 1 to 10 nM
* O=C(C(c1ccccc1)n1c(=O)n(S(=O)(=O)c2cccs2)c2ccc(Cl)cc21)N1CCN(c2ccncc2)CC1 (stereo not drawn) | 100 to 500 nM
* CC(C)NC(=O)Cn1c(-c2cccc(Cl)c2)nc2ccc([C@H]3C[C@@H](CN4CC[C@@H](C)C4)C3)cc2c1=O | 1 to 10 nM
* CCOc1ccccc1C1(N2CCN(c3ccncc3)CC2)C(=O)N(S(=O)(=O)c2ccc(OC(F)F)cc2)c2ccc(C#N)cc21 (racemic) | 50 to 500 nM
* CCOc1ccc(S(=O)(=O)N2C(=O)C(c3ccccc3OCC)(N3CCN(c4ccncc4)CC3)c3cc(C#N)ccc32)cc1 (racemic) | 50 to 500 nM
* COc1ccc(S(=O)(=O)N2C(=O)C(c3cc(CN(C)C)ccc3OC)(N3CCC[C@H]3c3ncon3)c3cc(Cl)ccc32)cc1 (stereo partly drawn) | < 10 nM
* CCOc1ccc(OC)cc1C1(N2CC3(CN(C4CCN(CCOC)CC4)C3)C2)C(=O)N(S(=O)(=O)c2ccc(OC)cn2)c2ccc(C#N)cc21 (racemic) | 1 to 10 nM
* COc1ccc(S(=O)(=O)N2C(=O)C(c3cc(CN4CCN(C)CC4)ccc3OC)(N3CCC[C@H]3c3ncco3)c3cc(Cl)c(F)cc32)cc1 (stereo partly drawn) | < 10 nM
* COc1ccc(S(=O)(=O)N2C(=O)C(c3cc(CN(C)C)ccc3OC)(N3CCC[C@H]3c3ncco3)c3cc(Cl)ccc32)cc1 (stereo partly drawn) | < 10 nM
* CCNCc1ccc(OC)c(C2(N3CCC[C@H]3c3ncco3)C(=O)N(S(=O)(=O)c3ccc(OC)cc3)c3ccc(C#N)cc32)c1 (stereo partly drawn) | < 10 nM

---

// cross-source set; read-out = pKi; system = Vasopressin V1b receptor (Homo sapiens)
pKi: −log10 of the molar value.
reported.metric: pKi

• CCOc1ccccc1C1(N2CCN(c3ccncc3)CC2)C(=O)N(S(=O)(=O)c2ccc(CC)cc2)c2ccc(C#N)cc21 (racemic) = 6.30 to 7.30
• CCCN1CCN(C2CCN(C(=O)C(c3ccccc3)n3c(=O)n(S(=O)(=O)c4ccc(OC)cc4)c4cc(Cl)ccc43)C2)CC1 (stereo not shown) = > 7.00
• CCOc1nc(Cl)ccc1C1(N2CCC(N3CCN(C)CC3)CC2)C(=O)N(S(=O)(=O)c2ccc(OC)cn2)c2ccc(C#N)cc21 (racemic) = > 8.00
• CCOc1ncccc1C1(NCc2ccc(N3CCN(C)CC3)cc2)C(=O)N(S(=O)(=O)c2ccc(Cl)cc2)c2ccc(C#N)cc21 (stereo not shown) = 7.00 to 8.00
• CCCN1CCN([C@@H]2CCN(C(=O)C(c3ccccc3)n3c(=O)n(S(=O)(=O)c4ccc(OC)cc4)c4ccc(Cl)cc43)C2)CC1 (stereo partly shown) = > 7.00
• CCOc1ccccc1C1(N2CCN(c3ccncc3)CC2)C(=O)N(S(=O)(=O)c2ccc(OC)c3cccnc23)c2ccc(C#N)cc21 (racemic) = > 8.00
• CCCN1CCN([C@@H]2CCN(C(=O)C(c3ccccc3)n3c(=O)n(S(=O)(=O)c4ccc(OC)cc4)c4ccc(C#N)cc43)C2)CC1 (stereo partly shown) = 6.30 to 7.00
• COc1ccc(S(=O)(=O)n2c(=O)n(C(C(=O)N3CCN(C)CC3)c3ccccc3)c3cc(Cl)ccc32)cc1 (stereo not shown) = 5.00 to 6.30
• COc1ccc(S(=O)(=O)N2C(=O)C(c3cc(CN4CCCC4)ccc3OC)(N3CCC[C@H]3c3ncco3)c3cc(Cl)ccc32)cc1 (stereo partly shown) = > 8.00
• COc1ccc(S(=O)(=O)N2C(=O)C(c3cc(CNCCO)ccc3OC)(N3CCC[C@H]3c3ncco3)c3cc(Cl)ccc32)cc1 (stereo partly shown) = > 8.00
• CCOc1ncccc1C1(NCc2ccc(N3CCN(CC)CC3)cc2)C(=O)N(S(=O)(=O)c2ccc(OC)cc2)c2ccc(C#N)cc21 (stereo not shown) = > 9.00
• COc1ccccc1C1(N2CCN(c3ccncc3)CC2)C(=O)N(S(=O)(=O)c2cccc3cccnc23)c2ccc(C#N)cc21 (racemic) = 7.30 to 8.00
• COc1ccc(S(=O)(=O)N2C(=O)C(c3cc(CN4CCN(C)CC4)ccc3F)(N3CCC[C@H]3c3ncco3)c3cc(Cl)ccc32)cc1 (stereo partly shown) = 7.00 to 8.00
• COc1ccc(S(=O)(=O)N2C(=O)C(c3cc(CN4CCN(CCO)CC4)ccc3OC)(N3CCC[C@H]3c3ncco3)c3cc(C#N)ccc32)cc1 (stereo partly shown) = > 8.00
• CC1CCN(C[C@H]2C[C@@H](c3ccc4nc(-c5cccc(Cl)c5)n(CC(=O)NC(C)C)c(=O)c4c3)C2)CC1 = 8.00 to 9.00
• CN1CCN(C2CCN(C(=O)C(c3ccccc3)n3c(=O)n(S(=O)(=O)c4cccc5cccnc45)c4ccc(Cl)cc43)CC2)CC1 (stereo not shown) = 5.00 to 6.30

---

pKi: −log10 of the molar value.
// cross-source set; read-out = pKi; system = Vasopressin V1b receptor (Homo sapiens, UniProt P47901)
reported.metric: pKi

* CCOc1ncccc1[C@]1(NC(=O)N2CC(N3CCC(N4CCCO4)CC3)C2)C(=O)N(S(=O)(=O)c2ccc(OC)cc2OC)c2ccc(C#N)cc21 | 7.00 to 8.00
* CCOc1ncccc1[C@]1(NC(=O)N2CC(N3CCC(N4CCCCC4)CC3)C2)C(=O)N(S(=O)(=O)c2ccc(OC)cc2OC)c2ccc(Cl)cc21 | > 9.00
* CCOc1cc(F)ccc1C1(N2CC3(CN(C4CCN(C)CC4)C3)C2)C(=O)N(S(=O)(=O)c2ccc(OC)cn2)c2ccc(C#N)cc21 (racemic) | 8.00 to 9.00
* CCOc1nc(Cl)ccc1C1(N2CCN(C3CCNCC3)CC2)C(=O)N(S(=O)(=O)c2ccc(OC)cn2)c2ccc(C#N)cc21 (racemic) | > 8.00
* COc1ccc(S(=O)(=O)N2C(=O)C(c3ccc(CN(C)C)cc3OC)(N3CCC[C@H]3c3ncco3)c3cc(Cl)ccc32)cc1 (stereo partly drawn) | > 8.00
* COc1ccc(S(=O)(=O)N2C(=O)C(NCc3ccc(N4CCN(C)CC4)cc3)(c3cccnc3OCC(F)(F)F)c3cc(C#N)ccc32)cc1 (stereo not drawn) | 8.00 to 9.00

---

// cross-source set; read-out = pKi; system = Vasopressin V1b receptor (Homo sapiens, UniProt P47901)
pKi: −log10 of the molar value.
reported.metric: pKi

* COc1ccc(S(=O)(=O)n2c(=O)n(CC(=O)N3CCN(C4CCN(C)CC4)CC3)c3cc(Cl)ccc32)cc1 | 5.00 to 6.30
* CCOc1ncccc1C1(NC(=O)N2CCC(N3CCN(C)CC3)CC2)C(=O)N(S(=O)(=O)c2ccc(OC)cc2OC)c2ccc(Cl)cc21 (single isomer, unassigned; (+)) | > 9.00
* COc1ccc(S(=O)(=O)N2C(=O)C(c3cc(CN4CCNC(=O)C4)ccc3OC)(N3CCC[C@H]3c3ncco3)c3cc(C#N)ccc32)cc1 (stereo partly shown) | > 8.00
* CNCc1cnc(OC)c(C2(N3CCC[C@H]3c3ncco3)C(=O)N(S(=O)(=O)c3ccc(OC)cc3)c3ccc(Cl)cc32)c1 (stereo partly shown) | > 8.00
